I'd appreciate it if you could supply AST values for the items below.
Organism: Rattus norvegicus
Assay: Open TG-GATES - Regimen: Single
Assay type: toxicity, organism-based, Sprague-Dawley
Parameters: regimen Single, gender Male, age 6 weeks
Conditions: in vivo, po, 100 mg/kg, 9 h, tissue Plasma, route gavage, dose level Low
The reply should contain only the number, in IU/L.

stdin: Fill in: AST of CCOC(=O)CCC(=O)O[C@H]1[C@H](O[C@@H]2[C@@H](C)[C@H](O[C@H]3C[C@@](C)(OC)[C@@H](O)[C@H](C)O3)[C@@H](C)C(=O)O[C@H](CC)[C@@](C)(O)[C@H](O)[C@@H](C)C(=O)[C@H](C)C[C@@]2(C)O)O[C@H](C)C[C@@H]1N(C)C [ERYTHROMYCIN ETHYLSUCCINATE] is ___
stdout: 64

stdin: Fill in: AST of COC1=CC(=O)C[C@@H](C)[C@]12Oc1c(Cl)c(OC)cc(OC)c1C2=O [GRISEOFULVIN] is ___
stdout: 64.2

stdin: Fill in: AST of COc1ccc2[nH]c([S+]([O-])Cc3ncc(C)c(OC)c3C)nc2c1 (centres undefined) [OMEPRAZOLE] is ___
stdout: 56.8

stdin: Fill in: AST of NC(N)=Nc1nc(CSCCC(N)=NS(N)(=O)=O)cs1 [FAMOTIDINE] is ___
stdout: 61.2

Reference source for all entries: ChEMBL document CHEMBL3885861
